Cited source: the METLIN SMRT retention time set (Domingo-Almenara et al. 2019)

- protocol.text: gradient 5% acetonitrile 3 min, to 50% in 2 min, to 85% in 15 min, held 3 min, 100 µL/min
- condition: column: Zorbax Extend-C18 2.1 x 50 mm; eluents: water / acetonitrile, 0.1% formic acid
The label depends only on RP-LC retention time: 1 if it is at least 700 s, -1 if it is smaller.

                                   compound  cat
0  Cc1ccc(NC(=O)Cn2c(=O)c(CCC(=O)NC3CCCC3)nc3ccccc32)cc1C    1

Does the reported RP-LC retention time for O=C(COc1ccccc1)N1CCCCC1c1nncn1CC1CC1 (stereo not given) fall at or above the 700 s mark?
1

Given CN(Cc1ccco1)c1nc(-c2ccc(Cl)cc2)nc2ccccc12 , state whether its RP-LC retention time is at least 700 s.
1

Does the compound CCCC(CCC)C(=O)N1CCC(Cc2nnc(C3CCOCC3)o2)C1 (stereo not given) have recorded RP-LC retention time that is 700 s or more?
1

In plain terms: is recorded RP-LC retention time at least 700 s for CCC(C)NC(=O)Cn1nc(Cc2ccncc2)c2ccccc2c1=O (stereo not given) ?
-1

Could you verify whether the entry O=c1ccc(-c2ccc3c(c2)OCO3)nn1Cc1nc(-c2ccc(F)cc2)no1 shows RP-LC retention time of no less than 700 s?
1

Test whether the compound Cc1cc(C)c(C)c(S(=O)(=O)NCC(=O)NCc2ccco2)c1C records RP-LC retention time of 700 s or higher.
-1

Item CCCNC(=O)C1CCN(c2ccc(SCC(=O)NCCc3ccc(Cl)cc3)nn2)CC1 with RP-LC retention time of 700 s or above?
-1

---

- protocol.text: gradient 5% acetonitrile 3 min, to 50% in 2 min, to 85% in 15 min, held 3 min, 100 µL/min
- condition: column: Zorbax Extend-C18 2.1 x 50 mm; eluents: water / acetonitrile, 0.1% formic acid
recorded.metric: RP-LC retention time (s)
Report the figure in s without appending any unit label.

Indicate its recorded RP-LC retention time; the molecule in question is CCCNC(=O)c1c(O)c2cccnc2n(-c2ccc(OC)cc2)c1=O
1080

---

- protocol.text: gradient 5% acetonitrile 3 min, to 50% in 2 min, to 85% in 15 min, held 3 min, 100 µL/min
- condition: column: Zorbax Extend-C18 2.1 x 50 mm; eluents: water / acetonitrile, 0.1% formic acid
recorded.metric: RP-LC retention time (s)
Express the result in s but write the number alone.

Some solved cases for reference:
In [3]: df
Out[3]:
                                   molecule  readout_number
0  CSc1ccc(NC(=O)C2CCN(c3cncnc3N3CCOCC3)CC2)cc1             669
1  COC(=O)c1sccc1S(=O)(=O)Nc1ccc(CC(=O)N2CCC(O)CC2)cc1             882
2  Cc1ccc(C(=O)NCc2nc(-c3ccc4c(c3)nnn4C3CCCC3)no2)cc1             969
3  Cc1ccccc1CN1C[C@@H]2C(=O)N(CCCN3CCCC3=O)C(=O)[C@@H]2C1             606
4  CCOc1ccc(NC(=O)NCC(c2cccnc2)c2cn(C)c3ccccc23)cc1 (stereo not given)             703
5  Cc1c(Cl)cccc1NC(=O)N(C)CC1CCOC1 (stereo not given)             720
6  Cc1noc(C)c1CC(=O)N1CCC2(CC1)C(=O)N(C)c1ccccc12             720
7  CCN1CCn2cc(S(=O)(=O)Nc3cc(C)cc(C)c3)cc2C1=O             729
8  COc1ccc(N2CCN(C(=O)c3cn4c(n3)COCC4)CC2)cc1             598
9  Cc1ccc(Sc2nccnc2N2CCC(C(=O)N3CCN(c4ccc(F)cc4)CC3)CC2)cc1            1200

Return RP-LC retention time (reported value) for this molecule: COC(=O)Cn1c(=O)c(=O)n(CC(=O)OC)c2ccccc21
640

Return RP-LC retention time for the following molecule: COCc1c(C(=O)O)nnn1-c1ccc(F)c(C)c1
723

For CCNC(=O)CN1C(=O)CCn2nc(-c3cn(C)c4ccccc34)cc21 , write its RP-LC retention time.
656
